# test system: Mu-type opioid receptor (Homo sapiens) + Delta-type opioid receptor (Homo sapiens) (UniProt P35372+P41143)
# Sequence (P35372 whole entry, looked up): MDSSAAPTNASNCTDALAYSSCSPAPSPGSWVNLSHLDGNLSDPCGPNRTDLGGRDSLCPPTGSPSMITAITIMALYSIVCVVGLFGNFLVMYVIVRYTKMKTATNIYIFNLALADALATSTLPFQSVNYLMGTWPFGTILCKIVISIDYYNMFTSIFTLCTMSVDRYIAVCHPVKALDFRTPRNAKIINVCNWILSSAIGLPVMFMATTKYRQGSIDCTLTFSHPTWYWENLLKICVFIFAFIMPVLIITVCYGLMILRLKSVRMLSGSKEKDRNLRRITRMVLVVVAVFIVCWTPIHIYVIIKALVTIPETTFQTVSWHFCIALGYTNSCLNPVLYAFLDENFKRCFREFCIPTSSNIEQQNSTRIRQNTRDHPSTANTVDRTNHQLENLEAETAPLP
# Sequence (P41143 whole entry, looked up): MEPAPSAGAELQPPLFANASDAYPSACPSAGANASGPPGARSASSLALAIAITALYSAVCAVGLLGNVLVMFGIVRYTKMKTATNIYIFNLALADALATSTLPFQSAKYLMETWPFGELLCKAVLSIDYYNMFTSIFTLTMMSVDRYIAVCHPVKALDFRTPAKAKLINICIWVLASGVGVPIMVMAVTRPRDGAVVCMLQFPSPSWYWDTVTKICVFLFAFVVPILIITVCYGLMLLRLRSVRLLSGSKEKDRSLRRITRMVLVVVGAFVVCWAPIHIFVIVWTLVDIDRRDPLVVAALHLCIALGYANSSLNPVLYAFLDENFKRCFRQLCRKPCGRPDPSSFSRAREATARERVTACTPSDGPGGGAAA
# test name: agonists of MOR-DOR heterodimerization, confirmation, cell-based, luminescence (AID 504904);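 further: 0% = vehicle-treated cells and 100% = reference agonist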
# applied conditions: cells, luminescence complementation, at 9.3 µM, stronger effect = higher value
The other results are listed elsewhere or left out.
assay metric: activation (%)
Respond numerically; units are % and should not be typed.

Answer with the recorded activation of Cc1ccc(OCC(=O)Nc2ccc(NC(=O)c3cccs3)cc2)c(C)c1 only.
421

Answer with the recorded activation of Cc1ccc(-n2c(SCC(=O)NCCC3=CCCCC3)nc3n[nH]c(C)c3c2=N)cc1Cl only.
2.44

Answer with the recorded activation of CCC(C(=O)OCC(=O)Nc1ccc(C(=O)Nc2ccc(OC)cc2)cc1)c1ccccc1 (stereo unspecified) only.
4.73

Answer with the recorded activation of COc1ccc(SC[C@H](Cc2ccccc2)N2CCN(CCc3ccccc3)CCC2=O)cc1 only.
28.3

Answer with the recorded activation of CN(C)C(CNC(=O)c1ccc(S(=O)(=O)NCc2ccco2)cc1)c1ccccc1 (stereo unspecified) only.
16.7

Answer with the recorded activation of COC(=O)c1ccc(C23CC4(C2)[C@H](CN(Cc2cccnc2)[C@@H]4c2ccccc2)C3c2ccc(Cl)nc2)cc1 (stereo partly specified) only.
17.2

Answer with the recorded activation of N#CC(C(=O)c1ccc(S(=O)(=O)N2CCCCCC2)cc1)c1nc2ccccc2[nH]1 (stereo unspecified) only.
6.41

Answer with the recorded activation of CC(OC(=O)/C=C/c1ccccc1)C(=O)Nc1ccc(C(N)=O)cc1 (stereo unspecified) only.
-2.09

Answer with the recorded activation of N#C/C(=C(/O)COC(=O)COc1ccc(Cl)cc1)c1nc2ccccc2[nH]1 only.
13.4

Answer with the recorded activation of CN(C)C(CNC(=O)Cc1ccc([N+](=O)[O-])cc1)c1ccccc1 (stereo unspecified) only.
164

Answer with the recorded activation of CCOC(=O)c1c(C)[nH]c2c1-c1ccccc1C(=O)C2=O only.
18.7

Answer with the recorded activation of CN(CC(=O)Nc1ccc(Cl)cc1)C(=O)c1ccc(COc2ccccc2)cc1 only.
0.49

Answer with the recorded activation of Cc1ccc(CNC(=O)CC(NC(=O)c2ccccc2)c2ccccc2)cc1 (stereo unspecified) only.
-2.24

Answer with the recorded activation of Clc1ccc(COn2c(-c3ccc(Cl)cc3Cl)nc3ncccc32)cc1 only.
2.83

Answer with the recorded activation of O=C1N/C(=C/c2cccs2)C(=O)N1Cc1ccc(F)cc1 only.
35

Answer with the recorded activation of CN1CCN(c2ccc([N+](=O)[O-])c(Sc3nc4ccccc4[nH]3)c2)CC1 only.
1.22

Answer with the recorded activation of COc1ccc(C2Nc3ccccc3C(=O)N2c2ccc(F)cc2)cc1Cn1nnc2ccccc21 (stereo unspecified) only.
0.83

Answer with the recorded activation of O=C(NC1=CC(=O)c2ccccc2C1=O)c1ccccc1 only.
7.9

Answer with the recorded activation of O=C(NCc1cn2ccsc2n1)Nc1ccc(Cl)cc1 only.
7.03

Answer with the recorded activation of O=C(Nc1ccc(OC(F)(F)F)cc1)c1ccc2c(c1)no[n+]2[O-] only.
13.3

Answer with the recorded activation of CCCC(=O)NC(C)C(c1cccs1)N1CCN(c2ccccc2)CC1 (stereo unspecified) only.
36.7
